# stated_conditions: buffer; pH 7.4; 200.0 µM
measure: log10 solubility kinetic (log10 of the value in µg/mL)
Parameter value (number): base-10 log of solubility kinetic in µg/mL.

I would be grateful if you could share the reported log10 solubility kinetic for O=C(Cc1c[nH]c2ccccc12)Nc1ccc(N2CCOCC2)cc1 .
1.00

I would be grateful if you could share the reported log10 solubility kinetic for CCOc1ccc(N=C2NC(=O)SC2CC(=O)OC)cc1 (stereo not given) .
1.09

I would be grateful if you could share the reported log10 solubility kinetic for CC(=O)c1c(C)[nH]c(C(=O)OCc2csc(CC(=O)Nc3ccccc3C)n2)c1C .
0.62

I would be grateful if you could share the reported log10 solubility kinetic for Cn1c(=O)c2cc3ccc(Cl)cc3nc2n(C)c1=O .
-0.40

I would be grateful if you could share the reported log10 solubility kinetic for CN1C(=O)c2ccc(C(=O)Nc3ccc4c(c3)OCO4)cc2C1=O .
-0.15

I would be grateful if you could share the reported log10 solubility kinetic for COc1ccc(OCC(=O)N2CCCC2=O)c([N+](=O)[O-])c1 .
1.63

I would be grateful if you could share the reported log10 solubility kinetic for COCCCn1c(=O)c2sccc2n(Cc2cccc(C)c2)c1=O .
1.18

I would be grateful if you could share the reported log10 solubility kinetic for COc1ccc(NC(=S)Nc2cccc(C(F)(F)F)c2)c(C)c1 .
0.90

I would be grateful if you could share the reported log10 solubility kinetic for O=C(CSc1ccccn1)Nc1cccc([N+](=O)[O-])c1 .
1.58

I would be grateful if you could share the reported log10 solubility kinetic for O=C1c2cccc3c(O)ccc(c23)C(=O)N1c1ccc(Cl)cc1 .
1.21

I would be grateful if you could share the reported log10 solubility kinetic for CN(C)c1cccc(C(=O)OCC(=O)NC2CCCC2)c1 .
1.56

I would be grateful if you could share the reported log10 solubility kinetic for O=Cc1c(Nc2cccc(C(F)(F)F)c2)nc2ccccn2c1=O .
0.23

I would be grateful if you could share the reported log10 solubility kinetic for CC(C)CC(C)NC(=O)c1ccc(C(F)(F)F)cc1 (stereo not given) .
0.69

I would be grateful if you could share the reported log10 solubility kinetic for O=C(COC(=O)c1cc([N+](=O)[O-])ccc1NCCO)Nc1cccnc1Cl .
0.96

I would be grateful if you could share the reported log10 solubility kinetic for COc1ccc(CCCC(=O)NCCc2ccccc2)c(C)c1 .
1.02

I would be grateful if you could share the reported log10 solubility kinetic for C=CCNC(=O)c1cc(-c2ccc3c(c2)OCO3)on1 .
0.18

I would be grateful if you could share the reported log10 solubility kinetic for N#Cc1ccc2nc3c(nc2c1)CCCC3 .
1.48

I would be grateful if you could share the reported log10 solubility kinetic for CC12CCC(=O)N1C(C(=O)Nc1nc3ccccc3s1)CS2 (stereo not given) .
1.11
